# Target under test: BKV VP1 (BK virus (BKV), AS strain) (UniProt P14996)
# Sequence (P14996 whole entry): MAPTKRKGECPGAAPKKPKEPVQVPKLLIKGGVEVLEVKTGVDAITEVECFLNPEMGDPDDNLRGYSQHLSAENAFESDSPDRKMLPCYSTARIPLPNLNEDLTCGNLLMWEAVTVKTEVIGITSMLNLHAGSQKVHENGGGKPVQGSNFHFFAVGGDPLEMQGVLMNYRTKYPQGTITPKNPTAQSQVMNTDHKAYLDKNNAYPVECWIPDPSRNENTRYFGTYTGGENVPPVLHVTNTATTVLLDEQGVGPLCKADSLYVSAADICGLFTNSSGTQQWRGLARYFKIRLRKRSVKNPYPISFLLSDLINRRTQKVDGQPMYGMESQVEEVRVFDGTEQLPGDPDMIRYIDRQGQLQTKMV
# Assay summary: direct ELISA
Parameter: pEC50. Scope: all listed entries.
Here pEC50 is given on a logarithmic scale as minus log10 of the concentration in mol/L.

Given item NI-307.19F10 (antibody, V domains shown) VH: EVQLVESGGGLVQPGGSVSLSCAASGFTFPVYWMHWVRQAPEKGLMWVSRISPDGTIVDYAGSVKGRFTVSRDNAKNILYLQIQRLTAEDTAVYFCTKDFDVASGFWGQGTLVTVSS VL: QSALTQPPSASGSPGQSVTISCTGSKSDVGTCHFVSWYQQHPGKVPKLVIYEGNKRPSGVPDRFSASKSGNTASLTISGLQPGDEADYYCSTCAGPNNYVFGTGTKVTVL , the value recorded as its pEC50 is 8.62

The recorded pEC50 for entry NI-307.24F3 (antibody, V domains shown) VH: QVQLQESGGGVVQPGRSLRLSCAASGFSFNRYGMHWVRQAPGKGLEWLAVISNDGVNTHYADSVKGRFTISRDNSKSTLYLQASSLRVEDTAVYYCAGYYYGSGTSLFFYWGQGTLVTVSS VL: EIVLTQSPDSLAVSLGERATINCKSSQTVLYSSNNQNYLAWYQQKPGQPPKLLLYWASTRESGVPDRFSGSGSGTDFTLTISSLQPEDVAVYYCQQYYTAPYTFGQGTKVEIK equals 8.98

Recorded pEC50 (binder NI-307.5H3 (antibody, V domains shown) VH: QVQLQESGPGLLKPLGTLSLICDVSGDSISSSNWWSWVRQSPRKGLEWIGEIYHSGRTNYNPSLTNRVTISVDKSKNQFSLNLNSVTAADTGVYYCARWDYYYNNDYYIRGFDIWGQGTMVTVSS VL: EIVLTQSPGILSLSPGERATLSCRASQSVDSNYLAWYQQKPGQAPRLLIYSTSTRAAGVPDRFSGSGSGTDFALTISGLEPEDFAVYYCQQWGGSPPITFGQGTRLEIK ): 9.44

Record NI-307.6A2 (antibody, V domains shown) VH: QVQLQESGPGLVKPSETLSLTCAVSGGSVSSSYWYSWVRQLPGKGLEWIGEIFHTGDTNYNPSLESRVTISIDTSKNQLSLDVTSATAADTAVYYCARDYCTDSGCDSDALDVWGHGTMVTVSS VL: QSALTQPASVSGSPGQSITISCTGTTKDVGNYNLVSWYQQHPGKAPRLVIYEVSERPSGVSNRFSGSKSGNTASLTISGLQAEDEADYHCCSYAGSGTSVFGGGTKVTVL , field pEC50: 8.75

src = patent US20160052996A1
